# METHOD: inhibitors of PAF-induced NFkB signaling in CF airway cells, dose response, cell-based, uHTS hits, panel, cytotoxicity readout (AID 624344)
# REPORTED_CONDITIONS: CF bronchial epithelial cells, PAF-induced NFkB reporter inhibition, with PAF, run 1; at 79 µM (top of the series) unless noted
// reported inhibition for each item listed
Give the value in % but do not write % after it.

Cc1ccc(C(=O)Nc2cccc(C(F)(F)F)c2)cc1NC(=O)c1ccno1	86.8

[in] inhibition for COc1cc(O)cc2cc3c(c(O)c12)C(=O)CC(C)(O)O3 (stereo not drawn) ?
[out] 99.9

[in] inhibition for Cc1nn(-c2ccccc2)c(Cl)c1C(=O)N1CCN(c2ncnc3c2cnn3-c2ccccc2)CC1 ?
[out] 114

* * *

# METHOD: inhibition of Brca1/Bard1 split-luciferase complementation, confirmation, counter-screen for Mdm2/MdmX interaction inhibitor project, luminescence, single concentration (AID 504668)
# REPORTED_CONDITIONS: Brca1/Bard1 bimolecular luciferase complementation counterscreen, at 8 µM, stronger effect = higher value
Active and inactive are the calls of the source. The rule behind the calls is not given here.
OUTCOME_MEASURE: inhibition

Cn1c(Oc2ccc(Cl)cc2)c(C=O)c2ccccc21	34.4% (active)

Consider now this further compound.
[in] inhibition for O=C(NCCc1ccccc1)c1ccc2c(c1)OCCO2 ?
[out] 27.8% (active)

* * *

# METHOD: caspase-8 TRAIL sensitization, hit retest, confirmation, cell-based, NB7+caspase-8, with/without TRAIL, luminescence panel (AID 651596)
# REPORTED_CONDITIONS: NB7 neuroblastoma + caspase-8, without TRAIL, luminescence viability, without TRAIL, mean of runs, at 10 µM
OUTCOME_MEASURE: activity (%)
Give the value in % but do not write % after it.

[in] activity for CC(C)CC(N)c1csc(NC(=O)c2cc(C(C)(C)C)nn2Cc2ccccc2)n1 (stereo not given) ?
[out] 92.4

[in] activity for COc1ccc(C(=O)Nc2ccc3ccccc3c2)cc1 ?
[out] 74.5

[in] activity for CN(C(=O)c1ccccc1)c1nc2ccccc2s1 ?
[out] 72.3

* * *

// reported inhibition for each item listed
# METHOD: inhibitors of PAF-induced NFkB signaling in CF airway cells, dose response, cell-based, uHTS hits, panel, cytotoxicity readout (AID 624344)
# REPORTED_CONDITIONS: CF bronchial epithelial cells, PAF-induced NFkB reporter inhibition, with PAF, run 2; at 79 µM (top of the series) unless noted
Give the value in % but do not write % after it.

In the examples that follow, each entry is paired with its recorded inhibition.
CCOc1ccc(-n2c(C)c(C(C)=O)c3cc(O)ccc32)cc1	88.2
COc1ccc([C@]2(C(C)C)ON(c3ccccc3C(F)(F)F)C2=O)cc1	91.5
COc1ccc2[nH]c3c(c2c1)CCNC3=O	103
COc1ccc(OC)c(-c2nnc3n2N=C(c2ccc(OC)c(OC4CCOC4)c2)CS3)c1 (centres undefined)	107
COc1ccccc1NC(=O)c1cc2c(CO)cnc(C)c2oc1=Nc1ccc(OC)c(OC)c1	93.8

[in] inhibition for Cc1ccc(NC(=O)Nc2nnc(-c3ccncc3)s2)cc1 ?
[out] 114

[in] inhibition for CC(=O)Nc1nc(C)c(-c2csc(Nc3cccc(C(C)=O)c3)n2)s1 ?
[out] 101

[in] inhibition for O=C(/C=C/c1cccc([N+](=O)[O-])c1)n1cnc2ccccc21 ?
[out] 111

[in] inhibition for COc1ccc(Cc2nnc(SCc3ccc([N+](=O)[O-])cc3)o2)cc1 ?
[out] 97.4

* * *

# TARGET_SYSTEM: Tumor necrosis factor receptor superfamily member 10B (Homo sapiens)
# METHOD: caspase-8 TRAIL sensitization, hit retest, confirmation, cell-based, NB7+caspase-8, with/without TRAIL, luminescence panel (AID 651596)
# REPORTED_CONDITIONS: NB7 neuroblastoma + caspase-8, TRAIL sensitization, luminescence viability, with TRAIL, mean of runs, at 10 µM, stronger effect = higher value
Threshold-based label: activity under 70% gives 1 (yes), activity not under 70% gives 0 (no).

Some entries whose results are on file:
Cc1cccc(N(Cc2ccccc2)C(=O)CCl)c1	0 (no)
COn1c(SCc2ccc(Cl)cc2)nc2ccccc2c1=O	1 (yes)
CCC(C)c1ccc(NC(=O)c2cccs2)cc1 (stereo not given)	0 (no)

[in] Item C=CCN1C=CC(=C/C=C(/C#N)C(=O)OCC)C=C1 : activity beneath 70%, strictly?
[out] 1 (yes)

[in] Item O=C(Nc1cccc(O)c1)c1noc2c1CCc1ccccc1-2 : activity beneath 70%, strictly?
[out] 0 (no)

[in] Item Cc1ccc(S(=O)(=O)n2ccc3c(OCCOCCNCc4ccc(F)cc4)cccc32)cc1 : activity beneath 70%, strictly?
[out] 1 (yes)

[in] Item CCOC(=O)c1cnc(Nc2nc3ccccc3o2)nc1C : activity beneath 70%, strictly?
[out] 0 (no)

[in] Item O=S1(=O)N=C(Nc2nc3c(s2)CCCC3)c2ccccc21 : activity beneath 70%, strictly?
[out] 0 (no)

[in] Item Cc1cccc(N(Cc2cc(=O)[nH]c3ccccc23)C(=O)CCl)c1 : activity beneath 70%, strictly?
[out] 0 (no)

[in] Item O=C(CN1C(=O)c2ccccc2S1(=O)=O)c1ccc(Cl)cc1Cl : activity beneath 70%, strictly?
[out] 1 (yes)

[in] Item O=C(Nc1ccc(NC(=O)c2cccs2)cn1)c1ccco1 : activity beneath 70%, strictly?
[out] 1 (yes)

[in] Item Cc1cc(NC(=O)CSc2nnc(-c3ccc4c(c3)OCCO4)o2)no1 : activity beneath 70%, strictly?
[out] 1 (yes)

[in] Item CCCC(=O)N1CCN(c2ccc(NC(=O)c3cc4ccccc4o3)cc2Cl)CC1 : activity beneath 70%, strictly?
[out] 0 (no)

* * *

# METHOD: inhibition of Brca1/Bard1 split-luciferase complementation, confirmation, counter-screen for Mdm2/MdmX interaction inhibitor project, luminescence, single concentration (AID 504668)
# REPORTED_CONDITIONS: Brca1/Bard1 bimolecular luciferase complementation counterscreen, at 8 µM, stronger effect = higher value
// reported inhibition for each item listed
Give the value in % but do not write % after it.

In the examples that follow, each entry is paired with its recorded inhibition.
COc1ccccc1-c1cc(C(F)(F)F)nc(S(=O)(=O)CCCC(=O)Nc2cc(C)on2)n1	32.8
O=c1c2ccccc2nc(N/N=C/c2c(O)ccc3ccccc23)n1O	35.9
COc1ccc(-c2cn[nH]c2-c2ccc(O)cc2O)cc1	25.3
O=C(Nc1ccc(-c2nc3ccc(NC(=O)c4cccs4)cc3[nH]2)cc1)c1cccs1	33.7
CN(C(=O)OC(C)(C)C)c1ccc(-c2nc3ccccc3s2)cc1	24.8

Consider now this further compound.
[in] inhibition for COc1ccc(C(=O)N/N=C/c2cc(Br)ccc2O)cc1OC ?
[out] 29.6

* * *

# TARGET_SYSTEM: Tumor necrosis factor receptor superfamily member 10B (Homo sapiens)
# METHOD: caspase-8 TRAIL sensitization, hit retest, confirmation, cell-based, NB7+caspase-8, with/without TRAIL, luminescence panel (AID 651596)
# REPORTED_CONDITIONS: NB7 neuroblastoma + caspase-8, TRAIL sensitization, luminescence viability, with TRAIL, mean of runs, at 10 µM, stronger effect = higher value
Threshold-based label: activity under 40% gives yes (1), activity not under 40% gives no (0).

Cc1ccc(C(=O)Nc2ncc(Cc3ccccc3)s2)o1	no (0)
CCC(C)c1ccc(-c2cc(C(=O)OCC(=O)Nc3cc(C)on3)c3ccccc3n2)cc1 (configuration not stated)	no (0)
COc1ccc(NC(=O)c2nc(S(=O)(=O)Cc3cccc(C)c3)ncc2Cl)c(OC)c1	yes (1)
COc1ccc(NC(=O)c2ccc3c(c2)OCCO3)cc1OC	no (0)
Cc1ccc2nc(NC(=O)c3ccco3)sc2c1	no (0)
CCc1n[n+](CC(=O)c2ccccc2)c(N)s1	no (0)

[in] Item O=C(CN1C(=O)c2ccccc2S1(=O)=O)c1ccccc1F : activity beneath 40%, strictly?
[out] yes (1)

* * *

# TARGET_SYSTEM: Tumor necrosis factor receptor superfamily member 10B (Homo sapiens)
# METHOD: caspase-8 TRAIL sensitization, hit retest, confirmation, cell-based, NB7+caspase-8, with/without TRAIL, luminescence panel (AID 651596)
# REPORTED_CONDITIONS: NB7 neuroblastoma + caspase-8, TRAIL sensitization, luminescence viability, with TRAIL, mean of runs, at 10 µM, stronger effect = higher value
// reported activity for each item listed
Give the value in % but do not write % after it.

In the examples that follow, each entry is paired with its recorded activity.
C/C(=N\NC(=O)c1ccc(Cl)cc1)c1cccs1	80.1
O=C(NC(=S)Nc1ccccn1)c1ccccc1	77.8

Consider now this further compound.
[in] activity for Cc1ccc(NC(=O)CSc2nn(-c3ccccc3)c(=S)s2)cc1S(=O)(=O)N(C)C ?
[out] 22.1

* * *

# TARGET_SYSTEM: PEG-3 (UniProt Q6IN02)
# Sequence (Q6IN02 whole entry, looked up): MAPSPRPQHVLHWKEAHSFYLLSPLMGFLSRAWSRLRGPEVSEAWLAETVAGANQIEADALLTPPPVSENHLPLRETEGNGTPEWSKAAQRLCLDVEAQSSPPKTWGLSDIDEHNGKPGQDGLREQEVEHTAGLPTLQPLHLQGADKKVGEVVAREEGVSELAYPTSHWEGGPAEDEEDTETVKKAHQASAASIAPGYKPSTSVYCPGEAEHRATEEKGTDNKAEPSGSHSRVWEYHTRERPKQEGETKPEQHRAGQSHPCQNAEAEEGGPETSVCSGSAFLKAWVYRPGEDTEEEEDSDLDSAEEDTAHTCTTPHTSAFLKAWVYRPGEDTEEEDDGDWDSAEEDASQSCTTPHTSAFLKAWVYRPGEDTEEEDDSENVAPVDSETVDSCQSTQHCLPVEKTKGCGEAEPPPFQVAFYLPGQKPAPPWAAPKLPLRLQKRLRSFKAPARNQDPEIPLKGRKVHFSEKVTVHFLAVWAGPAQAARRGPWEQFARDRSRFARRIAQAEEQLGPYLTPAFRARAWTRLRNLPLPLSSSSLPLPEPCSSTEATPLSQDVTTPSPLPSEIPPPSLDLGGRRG
# METHOD: Peg3 promoter luciferase inhibitors, potency, dose response, cell-based, HeLa, CREF/GAPDH counter-screen panel (AID 624167)
# REPORTED_CONDITIONS: CREF/GAPDH counter-screens; HeLa PEG-Prom luciferase reporter, overnight, run 1, dose range 1, at 100 µM (top of the series) unless noted
OUTCOME_MEASURE: inhibition (%)
Give the value in % but do not write % after it.

OCCNc1c2ccccc2nc2ccccc12	99.6
Cc1cc(Sc2ncnc(N)c2[N+](=O)[O-])ncn1	102
CCOc1ccc(OCc2cccc(C(=O)O)c2)cc1	91.5
COc1cccc(/C=N/Nc2cc(C)nc(-c3ccccc3O)n2)c1O	100
COc1cccc(CN(C)C(=O)c2cc(-c3cccs3)nc3ccccc23)c1	84

Consider now this further compound.
[in] inhibition for CCCCCCCCNCCS(=O)(=O)NCc1ccc(OC)cc1 ?
[out] 98.9
